# methodDescription: Acute toxicity in Kunming mouse assessed as survival at 25 mg/kg, iv measured for 7 days relative to control
# Assay type: organism-based
# runConditions: in vivo, time 7 day
parameter: survival at 168 h (%)
Numeric answer only, unit % assumed.

### Prompt What does the data say about its survival at 168 h? Entry: COc1ccc(N(CCN2CCC(N3CCCC3)CC2)S(=O)(=O)c2ccc3c(c2)c2ccccc2n3C)c(OC)n1
### Response 100

Shifting focus to the molecule that follows.
### Prompt Fill in the blank: the reported survival at 168 h of COc1ccc(N(CCN(C)C)S(=O)(=O)c2ccc3c(c2)c2ccccc2n3C)c(OC)n1 is ____.
### Response 100

---

# Tested on: MCF7
# methodDescription: Antiproliferative activity against human MCF7 cells measured after 48 hrs by SRB assay
# Assay type: functional, cell-based
# runConditions: Homo sapiens, MCF7, 48 h
parameter: IC50 (µM)
Report as a plain number; the unit µM is understood.

For orientation, consider the following solved cases.
### Prompt If you can, please state the reported IC50 value of COc1ccc(N(CCCn2ccnc2)S(=O)(=O)c2ccc3c(c2)c2ccccc2n3C)c(OC)n1 .
### Response 4.53

### Prompt Which IC50 value belongs to COc1ccc(N(CCN2CCC(N3CCCC3)CC2)S(=O)(=O)c2ccc3c(c2)c2ccccc2n3C)c(OC)n1 ?
### Response 21

### Prompt Endpoint output: IC50 of COc1ccc(N(CCO)S(=O)(=O)c2ccc3c(c2)c2ccccc2n3C)c(OC)n1 . Value?
### Response 1.43

### Prompt Fill blank: measured IC50 of the molecule COc1ccc(NS(=O)(=O)c2ccc3c(c2)c2ccccc2n3C)c(OC)n1 is ____.
### Response 0.68

Let's switch to this molecule now.
### Prompt Quick one: IC50 for COc1ccc(N(CCCN2CCN(C)CC2)S(=O)(=O)c2ccc3c(c2)c2ccccc2n3C)c(OC)n1 ?
### Response 21

---

# Tested on: MCF7
# methodDescription: Antiproliferative activity against human MCF7 cells measured after 48 hrs by SRB assay
# Assay type: functional, cell-based
# runConditions: Homo sapiens, MCF7, 48 h
parameter: pIC50
Scale: pIC50 equals -log10([C]), with [C] in mol/L.

See these solved cases before continuing.
### Prompt Give its pIC50 value. Item: COc1ccc(N(CCN2CCC3(CCN(C)CC3)C2)S(=O)(=O)c2ccc3c(c2)c2ccccc2n3C)c(OC)n1
### Response 4.84

### Prompt Look up pIC50: COc1ccc(N(CCN2CCCC2)S(=O)(=O)c2ccc3c(c2)c2ccccc2n3C)c(OC)n1
### Response 5.24

***
### Prompt Entry under review: COc1ccc(NS(=O)(=O)c2ccc3c(c2)c2ccc(OP(=O)([O-])[O-])cc2n3C)c(OC)n1.[Na+].[Na+] . Reported pIC50?
### Response 7.80

### Prompt // pIC50 lookup, key: COc1ccc(N(CCN(C)C)S(=O)(=O)c2ccc3c(c2)c2ccccc2n3C)c(OC)n1
### Response 5.27

---

# methodDescription: Acute toxicity in po dosed Kunming mouse measured for 7 days
# Assay type: organism-based
# runConditions: in vivo, time 7 day
parameter: LD50 at 168 h (mg/kg)
Give the value, in units of mg/kg, as a plain number.

### Prompt Report LD50 at 168 h for COc1ccc(N(CCOP(=O)([O-])[O-])S(=O)(=O)c2ccc3c(c2)c2ccccc2n3C)c(OC)n1.[Na+].[Na+] please.
### Response 273
